target: BTK (Homo sapiens); experiment: biochemical; details: read-out: BTK inhibition (%)
Sequence (Q06187 402-655 limits assumed): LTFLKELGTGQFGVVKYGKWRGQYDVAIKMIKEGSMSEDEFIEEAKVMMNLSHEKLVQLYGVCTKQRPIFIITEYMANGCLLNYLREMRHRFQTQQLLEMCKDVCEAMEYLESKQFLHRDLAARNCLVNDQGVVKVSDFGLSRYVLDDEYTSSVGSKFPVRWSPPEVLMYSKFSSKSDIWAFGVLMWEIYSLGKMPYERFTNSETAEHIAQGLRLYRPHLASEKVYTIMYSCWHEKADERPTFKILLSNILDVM
Decide by inhibition at 10 µM: equal to or exceeding 10% means rule met, less means rule not met.

Recorded results for 2 compounds are shown here.
COc1cc(Br)c(Nc2nc(-c3c(C)nc4ncccn34)cs2)c(Br)c1
rule met
Cc1ccc2c(c1)[C@]13CCCC[C@@H]1[C@H](C2)N(C)CC3
rule met

Would you say O=C(O)CNC(=O)C1C(=O)N(C2CCCCC2)C(=O)N(C2CCCCC2)C1=O shows inhibition at 10 µM at minimum 10%?
rule met

Param item: Cc1ccc(NC(=S)NNc2c([N+](=O)[O-])cc(C(F)(F)F)cc2[N+](=O)[O-])cc1Cl
rule met

Field entry: C=C1CC[C@H]2[C@@H](/C=C(\C)C(=O)[C@@]3(OC(C)=O)C[C@H](C)[C@H](OC(=O)c4ccccc4)[C@@H]3[C@H]1OC(C)=O)C2(C)C
rule not met

Okay, and CCOP(=O)(OCC)C(=Cc1cc(C(C)(C)C)c(O)c(C(C)(C)C)c1)P(=O)(OCC)OCC ?
rule not met

# iterate: COc1ccc(N(C(=O)Oc2c(C)cccc2C)c2ccnc(Nc3ccc(N4CCN(C)CC4)cc3)n2)c(OC)c1
rule met

Follow-up entry: O=P(O)(O)Oc1cccc2ccccc12
rule not met

Source of measurements: paper PMC8041284
